- Assay system: Fibroblast growth factor 2 (Homo sapiens)
- Measurement protocol: FGF2 binders on small-molecule microarrays, primary screen, biochemical, small-molecule microarray, 635/667 nm fluorescence (AID 1133)
- Measurement context: small-molecule microarray binding, FGF2, fluorescence 635/667; higher = more signal
Experimental endpoint: composite z-score

// input: 4 compounds below; output: composite z-score for each
1. COc1ccc(C(=O)Nc2ccc(CN3C(=O)[C@@]4(O[C@@H](CCn5cc([C@H](O)c6ccccc6)nn5)[C@H]([Si](C)(C)c5ccc(OC)cc5)[C@H]4C)c4ccccc43)cc2)cc1
2. CN(C)CCCC[C@@H]1NC(=O)[C@H]2C[C@@H](C(=O)NCCCCCNC(=O)CS)[C@@H](c3cccc(OCCO)c3)N2C1=O
3. COCCOC(=O)N1C(=O)[C@@]2(c3cc(C#CC4=CCCCC4)ccc31)[C@H](C(N)=O)[C@H]1C(=O)O[C@H](c3ccccc3)[C@H](c3ccccc3)N1[C@@H]2c1ccc(OCCO)cc1
4. COc1ccc(CCNC(=O)[C@@]2(C)c3ccccc3C(=O)N(Cc3cc(F)cc(C(F)(F)F)c3)[C@H]2c2ccc(CO)cc2)cc1

1: -0.019; 2: 1.69; 3: 0.925; 4: 0.132

// input: 3 compounds below; output: composite z-score for each
1. COCCOC(=O)N1C(=O)[C@@]2(c3cc(C#CCCO)ccc31)[C@H](C(=O)Nc1nc3ccccc3s1)[C@H]1C(=O)O[C@H](c3ccccc3)[C@H](c3ccccc3)N1[C@@H]2c1ccc(OCCO)cc1
2. CC(C)N1C(=O)[C@@]2(Cc3ccccc31)c1ccccc1C(=O)N(C1CCCCC1)[C@H]2c1ccc(CO)cc1
3. O=C(NCc1ccccc1)[C@@]1(CCS(=O)(=O)c2ccccc2)N=C(c2ccc(OCCCO)cc2)O[C@H]1c1ccccc1

1.65
0.254
-0.0657

// input: 7 compounds below; output: composite z-score for each
1. Cc1ccc(S[C@]2(C(=O)NC3CC3)CC(=O)N(C3Cc4ccccc4C3)[C@@H]2c2ccc(CO)cc2)cc1
2. COc1cc2c(cc1O)C(C1CC1)N(Cc1cc3c(cc1Br)OCO3)CC2 (centres undefined)
3. C#CCN(CC1=CCCCC1)[C@H](c1ccccc1Br)[C@@H](O)Cc1ccccc1
4. CCOC1=C2C(CN(S(=O)(=O)c3ccc(C)cc3)C2c2ccc(C)cc2)C2C(=O)N(c3ccccc3)C(=O)C2C1 (centres undefined)
5. CN(C)C(=O)[C@@]1(Cc2ccccc2)N=C(c2ccc(OCCCO)cc2)O[C@H]1c1ccccc1N=[N+]=[N-]
6. CCCN1C(=O)[C@]2(CCS(=O)(=O)c3ccccc3)N=C(c3ccc(OCCCO)cc3)O[C@@H]2c2ccccc21
7. CCN(CC)c1ccc(N2CC=CC34O[C@@H]5/C=C\CCC(C)OC(=O)C5[C@H]3C(=O)N(C(CO)C(C)C)[C@@H]4C2=O)cc1 (some centres undefined)

1. -0.3
2. -0.746
3. -1.05
4. 0.301
5. 0.249
6. 0.408
7. 0.0509
